Test system: Saccharomyces cerevisiae;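 further: PSI is a weighted mean of sequencing reads over stability bins, variants kept only with over 10 reads, mCherry proximal and sfGFP distal, peptide attached via GGGS linker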
TEST: protein stability index of tFT-peptide fusion (C-terminal peptide) (PSI (0-1 scale)); higher = more stable (slower turnover)
CONDITIONS USED: genetic background: wild type; temperature: 30 C

PRIMARY SEQUENCE	protein stability index
AVWLGGGGRFVG	0.78
WARGVAASGRFV	0.692
GWAGGEGWRGEG	0.696
LGPFTEAVSRHC	0.67
PATRIDAFPPVP	0.685
VFPIISYPHTKS	0.678
PYFFSPIFTRTP	0.712
GGCRSVGWGREG	0.676
NISSFKHVLAYK	0.624
RDRVSASILVLP	0.689
IDLVLCIGLGYQ	0.62
NNANDKKNKRKK	0.664
LFVYSSVALSSQ	0.593
